System: COLO 205 colon
protocolText: NCI tumour cell line growth inhibition, 48 h
observedProperty: TGI (µM)
Write the number in µM without appending the unit.

# annotated cases, reported TGI shown
CC(=O)N1C/C(=C/c2ccc(Cl)cc2)C(=O)/C(=C/c2ccc(Cl)cc2)C1 | 2.01
COc1cc(OC)c(SSCCCCS(=O)O)c(OC)c1 | 35.7
COc1cc2c(cc1OC)-c1ccc3cc4c(cc3c1N(CCCn1ccnc1)C2)OCO4 | 6.12

For Cc1cc(O)cc2c1[C@]1(C)CCC3C(C)(C)CCC[C@]3(C)[C@H]1C2 (stereo not given in full) , what is its reported TGI?
34
